Catalogue of molecules with associated hEphA8-SEAP-: absorbance at 450 nm, percentage with respect to hEphA4-SEAP-His as 100%
target-under-test: T1, human EphA8 (Homo sapiens, UniProt P29322)
T1 construct: a protein of the extracellular region of each human Eph receptor fused with the SEAP protein and the His tag; made in house; host or cells: Expi293F cells (culture supernatant)
T1 sequence (P29322 28-542 limits assumed): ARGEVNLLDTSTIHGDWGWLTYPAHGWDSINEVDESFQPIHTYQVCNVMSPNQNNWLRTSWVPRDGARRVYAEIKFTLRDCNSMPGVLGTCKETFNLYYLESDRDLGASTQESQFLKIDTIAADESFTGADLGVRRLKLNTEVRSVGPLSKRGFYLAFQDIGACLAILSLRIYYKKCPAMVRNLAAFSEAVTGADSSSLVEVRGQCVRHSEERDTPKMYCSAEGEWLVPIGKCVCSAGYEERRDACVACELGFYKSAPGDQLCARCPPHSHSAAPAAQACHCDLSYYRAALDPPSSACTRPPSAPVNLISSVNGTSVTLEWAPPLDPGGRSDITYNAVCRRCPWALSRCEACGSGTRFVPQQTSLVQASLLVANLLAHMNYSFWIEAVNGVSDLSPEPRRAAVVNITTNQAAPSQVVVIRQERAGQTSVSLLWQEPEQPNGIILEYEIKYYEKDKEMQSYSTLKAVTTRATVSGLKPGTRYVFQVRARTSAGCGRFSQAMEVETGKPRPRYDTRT
test-name: Selectivity ELISA of humanized antibodies for human Eph receptor
Assay type: binding
condition-details: coated protein 1 nM
The reply should be a number in %, with the unit left off.

Example entries and their recorded answers appear below.
{"molecule": "84 (antibody, V domains shown, constant regions without entry; synthetic humanized antibody light chain variable region sequence; synthetic humanized antibody heavy chain variable region sequence) VL: DIQMTQSPSSLSASVGDRVTITCRASENIYRNLAWYQQKPGKAPKLLLYAATNLADGVPSRFSGSGSGTDYTLTISSLQSEDFATYYCQHFWGTPWTFGQGTKVEIK VH: QVQLVQSGSELKKPGASVKVSCKASGYTFTDYSMHWVRQAPGQGLEWMGWINTETGEPTYADDFKGRFVFSLDTSVSTAYLQISSLKAEDTAVYYCARIPLYYYGSRYWYFDVWGQGTTVTVSS", "assay-result": 5.3}
{"molecule": "83 (antibody, V domains shown, constant regions without entry; synthetic humanized antibody light chain variable region sequence; synthetic humanized antibody heavy chain variable region sequence) VL: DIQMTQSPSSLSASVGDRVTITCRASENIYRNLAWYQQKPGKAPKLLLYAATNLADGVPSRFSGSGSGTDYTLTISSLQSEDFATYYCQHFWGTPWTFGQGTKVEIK VH: QIQLVQSGSELKKPGASVKVSCKASGYTFTDYSMHWVRQAPGQGLKWMGWINTETGEPTYAQGFTGRFVFSLDTSVSTAYLQISSLKAEDTAVYYCARIPLYYYGSRYWYFDVWGQGTTVTVSS", "assay-result": 6.0}
{"molecule": "132 (antibody, V domains shown, synthetic humanized antibody heavy chain variable region sequence; synthetic humanized antibody light chain variable region sequence) VH: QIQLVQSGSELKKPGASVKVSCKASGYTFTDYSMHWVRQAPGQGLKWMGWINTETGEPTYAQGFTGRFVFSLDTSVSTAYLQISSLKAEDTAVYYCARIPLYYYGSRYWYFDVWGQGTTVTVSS VL: EIVMTQSPATLSVSPGERATLSCRASENIYRNLAWYQQKPGQSPRLLIYAATNLADGIPARFSGSGSGTEYTLTISSLQSEDFAVYYCQHFWGTPWTFGQGTKVEIK", "assay-result": 4.7}

We now examine a further molecule.
input: Name the reported hEphA8-SEAP-: absorbance at 450 nm, percentage with respect to hEphA4-SEAP-His as 100% value associated with the molecule 138 (antibody, V domains shown, synthetic humanized antibody heavy chain variable region sequence; synthetic humanized antibody light chain variable region sequence) VH: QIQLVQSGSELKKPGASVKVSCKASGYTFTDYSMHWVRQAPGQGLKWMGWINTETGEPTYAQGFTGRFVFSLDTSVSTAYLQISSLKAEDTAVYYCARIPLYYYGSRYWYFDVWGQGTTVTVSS VL: DIQMTQSPSSLSASVGDRVTITCRASENIYRNLAWYQQKPGKAPKLLVYAATNLADGVPSRFSGSGSGTDYTLTISSLQPEDFATYYCQHFWGTPWTFGQGTKVEIK
output: 5.4
